Assignment: determine reported IC50 for the given binders.
Molecular target: T1, soluble human FcRn (shFcRn) (human, UniProt P55899 24-297; P61769 21-119, biotinylated with Sulfo-NHS-LC-Biotin in the ELISA; amine-coupled to a CM5 chip in SPR)
T1 construct: also called biotinylated shFcRn
T1 sequence (P55899 24-297 limits assumed, chain 1 of 2): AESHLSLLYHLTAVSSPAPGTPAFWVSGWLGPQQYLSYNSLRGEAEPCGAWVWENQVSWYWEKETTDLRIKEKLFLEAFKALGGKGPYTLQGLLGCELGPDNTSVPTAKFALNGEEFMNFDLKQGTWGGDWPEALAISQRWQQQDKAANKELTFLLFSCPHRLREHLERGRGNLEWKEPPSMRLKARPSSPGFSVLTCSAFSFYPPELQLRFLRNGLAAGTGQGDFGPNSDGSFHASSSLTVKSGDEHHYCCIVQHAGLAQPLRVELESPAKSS
T1 sequence (P61769 21-119 limits assumed, chain 2 of 2): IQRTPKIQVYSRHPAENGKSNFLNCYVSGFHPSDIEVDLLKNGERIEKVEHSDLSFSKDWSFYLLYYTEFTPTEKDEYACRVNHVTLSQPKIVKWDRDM
Assay: competition ELISA vs human IgG
One number for each entry, in µM.

- Binder: "QRFVTGHFGXWYPANGP (D-Pro10; unbridged; C-terminal amide) [Peptide No. 177]"
  Unit of measure: "µM"
  IC50: 52

Okay, next one:
Given item RFXTGHFGXXYPCGG (Pen3; Sar9; NMeLeu10; intrachain disulfide; C-termini joined through a branching Lys, dimer made as Peptide No. 280) [Peptide No. 288] , the value recorded as its IC50 is 0.016
